target: T1, MET928 (cMET protein derived from construct 25-928) (human, UniProt P08581 25-928); assay: ELISA, soluble scFv
T1 construct: MET ectodomain, residues 1-24 are the leader; produced in Lec 8 cells; background text says the ectodomain is furin-cleaved into alpha (25-307) and beta chains; biotinylated form used in selections; also called MET928 extracellular domain; Met extracellular domain
T1 sequence (P08581 25-928): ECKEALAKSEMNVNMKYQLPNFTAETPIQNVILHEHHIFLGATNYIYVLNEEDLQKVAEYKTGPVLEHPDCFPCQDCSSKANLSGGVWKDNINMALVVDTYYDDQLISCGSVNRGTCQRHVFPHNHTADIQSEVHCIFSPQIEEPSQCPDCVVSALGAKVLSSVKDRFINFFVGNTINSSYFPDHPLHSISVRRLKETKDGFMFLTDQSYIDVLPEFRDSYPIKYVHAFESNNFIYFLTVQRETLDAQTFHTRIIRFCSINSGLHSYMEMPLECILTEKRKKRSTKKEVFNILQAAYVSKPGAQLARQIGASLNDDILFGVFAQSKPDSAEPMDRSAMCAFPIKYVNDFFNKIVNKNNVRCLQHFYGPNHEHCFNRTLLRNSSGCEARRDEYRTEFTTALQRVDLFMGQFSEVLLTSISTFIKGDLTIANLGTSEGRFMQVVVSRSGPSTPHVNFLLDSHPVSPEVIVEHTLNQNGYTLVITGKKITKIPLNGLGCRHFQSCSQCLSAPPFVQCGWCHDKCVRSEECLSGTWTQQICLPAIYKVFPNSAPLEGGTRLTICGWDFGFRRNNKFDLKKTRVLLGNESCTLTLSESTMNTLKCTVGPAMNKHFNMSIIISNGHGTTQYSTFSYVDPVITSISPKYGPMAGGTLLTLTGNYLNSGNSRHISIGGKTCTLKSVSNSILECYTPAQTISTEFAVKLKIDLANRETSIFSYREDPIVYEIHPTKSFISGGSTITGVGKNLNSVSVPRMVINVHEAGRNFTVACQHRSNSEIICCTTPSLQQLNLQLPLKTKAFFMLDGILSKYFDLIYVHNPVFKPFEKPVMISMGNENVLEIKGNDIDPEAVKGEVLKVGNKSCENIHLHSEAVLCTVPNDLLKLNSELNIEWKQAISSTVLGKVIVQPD
measured_metric: binding result

{"binder": "111_C10 (scFv, not shown: 6xHis/tri-FLAG tags) scFv: QMQLVQSGAEVKKPGAPVKVSCKVSGYTFTDYYMHWVQQAPGKGLEWMGLVDPEDGETIYAEKFQGRVTITADTSTDTAYMELSSLRSEDTAVYYCATDATTPYWTPEIWGQGTLVTVSSLEGGGGSGGGGSGGGASDIQMTQSPSSLSASVGDRVTITCQASQDISNYLNWYQQKPGRAPKVLIYDASNLETGVPSRFSGSGSGTEFTLTISNLRPDDFATYYCQQGDSFPLTFGGGTKVEIK", "measured_metric": "binding result", "measured_result": "binds"}
